System: K562
Experiment: NCI tumour cell line growth inhibition, 48 h
Activity calls are given as the source filed them. No stated cut-off is given here; in the data, active = GI50 up to about 1.1 µM and inactive = higher.
Return exactly one item of active, inactive

Record excerpt, results attached:
COMPOUND: O=C(CC1(O)C(=O)Nc2ccccc21)c1ccco1 (stereo unspecified)
TARGET_OR_TEST_SYSTEM: K562
CATEGORY_LABEL: inactive

COMPOUND: O=C1OC2CC=CC1C2 (stereo unspecified)
TARGET_OR_TEST_SYSTEM: K562
CATEGORY_LABEL: inactive

COMPOUND: Cc1ccc(-c2cc(=O)c3cc(C)c(C)c(C(=O)O)c3o2)cc1[N+](=O)[O-]
TARGET_OR_TEST_SYSTEM: K562
CATEGORY_LABEL: inactive

COMPOUND: COC(=O)[C@@]12C(=O)CCC(=O)C1C1C(=CC2C)O[C@@H]2OC3(CCCCC3)O[C@H]12 (stereo partly specified)
TARGET_OR_TEST_SYSTEM: K562
CATEGORY_LABEL: inactive

-- ask Would you mind telling me which call this test gave `CN(C)C(=O)/N=C1\SC(=N\c2ccccc2)/C(=N/c2ccccc2)N1c1ccc([N+](=O)[O-])cc1` ?
-- reply inactive

-- ask Would you mind telling me which call this test gave COC(=O)C(C(=O)C(=O)Nc1ccc([N+](=O)[O-])cc1[N+](=O)[O-])c1nc2ccc(Cl)cc2nc1O (stereo unspecified) ?
-- reply inactive

-- ask Would you mind telling me which call this test gave O=C(O)CCC(N/C=C1/N=C(c2ccccc2)OC1=O)C(=O)O (stereo unspecified) ?
-- reply inactive

====

System: KM12
Test: NCI tumour cell line growth inhibition, 48 h
Activity calls are given as the source filed them. Rule as the data show it: active = GI50 up to about 1.1 µM and inactive = higher.
Overview of recorded GI50 for various compounds

Example entries begin here.
COMPOUND: NC(=O)C1C(=O)Oc2cccnc21 (stereo not given)
GI50: > 100 µM (inactive)
--
COMPOUND: CCCC(=O)Nc1cc(/C=C/C(=O)N2CC(CCl)c3c2cc(O)c2[nH]cc(C)c32)n(C)c1 (stereo not given)
GI50: < 2.5e-05 µM (active)
--
COMPOUND: CSc1nc2ccccc2c(=O)n1-c1cccc(C)c1
GI50: 45.3 µM (inactive)
--
COMPOUND: C[C@@H](c1ccccc1)N1C[C@@H](c2ccc3c(c2)OCO3)[C@@H]2C(=O)CCC[C@@H]21
GI50: 97.9 µM (inactive)

Proceeding to the next compound to report its GI50.
Item: C=CCC1CC(n2cc(C)c(=O)[nH]c2=O)OC1CO[Si](C)(C)C(C)(C)C (stereo not given) | GI50: 12 µM (inactive)

====

System: A498
Assay: NCI tumour cell line growth inhibition, 48 h
The source made the active and inactive calls. No stated cut-off is given here; in the data, active = GI50 up to about 1.1 µM and inactive = higher.
Overview of recorded GI50 for various compounds

COMPOUND: O=C1C(Cl)=C(Oc2ccc([N+](=O)[O-])cc2)C(=O)c2c(O)ccc(O)c21
TARGET_OR_TEST_SYSTEM: A498
GI50: > 100 µM (inactive)

Item: CC(C)(C)[Si](C)(C)OCC1OC(n2ccc(=O)[nH]c2=O)C(O[Si](C)(C)C(C)(C)C)[C@]12O[C@@H]2CO (stereo partly specified) | GI50: 18.6 µM (inactive)

Item: `O=C(O)CN1C(=O)c2ccc(NC(=O)C(=O)O)cc2S1(=O)=O` | GI50: > 100 µM (inactive)

Item: `C=C1C(=O)O[C@@H]2/C=C(\C)CC/C=C(\C)CC[C@@]12O` | GI50: 9.12 µM (inactive)

Item: `CCO[C@H]1C[C@@H](c2ccccc2)[C@]2(C)C[C@H](C(=O)OC)ON2O1` | GI50: > 100 µM (inactive)

Item: `CCNCCNC(=O)c1ccc(Br)cc1` | GI50: > 100 µM (inactive)

Item: `C1CNCCNCCNCCN1` | GI50: > 100 µM (inactive)

Item: `c1ccc2cc(-c3cc4ccccc4s3)ccc2c1` | GI50: > 100 µM (inactive)

Item: `COC(=O)c1cc2c(cc1Cl)Sc1nnc(Nc3ccccc3)n1S2(=O)=O` | GI50: 5.55 µM (inactive)

Item: [O-][S+]1c2ccccc2N=C(c2cccs2)CC1c1ccccc1O (stereo unspecified) | GI50: 25.4 µM (inactive)

Item: `Nc1nc(Cl)c(Cl)c(NCC2(O)CCC2)n1` | GI50: 11.4 µM (inactive)

====

Test system: NCI-H226
Experiment: NCI tumour cell line growth inhibition, 48 h
Active and inactive are the calls of the source. Cut-off read from the data, not from the text of the source: active = GI50 up to about 1.1 µM and inactive = higher.
Return exactly one item of class 1 = active, class 0 = inactive

Record excerpt, results attached:
COMPOUND: Cc1nc2ccccc2n1CCc1nc2ccccc2s1
CATEGORY_LABEL: class 1
--
COMPOUND: O=C1C(Cl)=C(Oc2ccc([N+](=O)[O-])cc2)C(=O)c2c(O)ccc(O)c21
CATEGORY_LABEL: class 0
--
COMPOUND: C1CNCCNCCNCCN1
CATEGORY_LABEL: class 0
--
COMPOUND: CC(C)N(C(=O)C12C3C4C5(C#N)C3C1(I)C5C42I)C(C)C (centres undefined)
CATEGORY_LABEL: class 0
--
COMPOUND: COc1cc2c(oc(=O)c3cc4cc([Si](C)(C)C)oc4c(OC)c32)c2cccc(O)c12
CATEGORY_LABEL: class 0
--
COMPOUND: COc1ccc2c(c1)[C@@]13CCN4CC5=CCO[C@H]6CC(=O)N2[C@H]1[C@H]6[C@H]5C[C@H]43
CATEGORY_LABEL: class 1
--
COMPOUND: Cc1cccc(Cn2c3c(c4cc(O)ccc42)C(=O)c2ccccc2C3=O)c1
CATEGORY_LABEL: class 0
--
COMPOUND: CC(C)(O)CCc1ccc(O)c2c(=O)c3c(O)c4c(cc3oc12)O[C@H]1OC=C[C@@]41O
CATEGORY_LABEL: class 1

-- ask Would you mind telling me which call this test gave `COc1cc2c(cc1OC)C(=O)/C(=C/c1ccccc1)CC2` ?
-- reply class 0

====

Overview of recorded GI50 for various compounds
System: KM12
Test: NCI tumour cell line growth inhibition, 48 h
Calls of active or inactive are those of the source. Cut-off read from the data, not from the text of the source: active = GI50 up to about 1.1 µM and inactive = higher.

COMPOUND: CC(=O)OCC1OC(SC2=N/C(=C\c3cc4c(=O)c5ccccc5sc4s3)C(=O)N2c2ccccc2)C(OC(C)=O)C(OC(C)=O)C1OC(C)=O (centres undefined)
GI50: > 100 µM (inactive)

Item: COc1cc(S(=O)(=O)Nc2nc(-c3ccc(N4C(=O)C(CC(=O)O)SC4c4ccccc4O)cc3)cs2)ccc1Cl (centres undefined) | GI50: 78.7 µM (inactive)

Item: `N#Cc1nc(CCCCCN2C(=O)c3ccccc3C2=O)oc1N` | GI50: > 100 µM (inactive)

Item: `c1ccc2[nH]c3nc4ccccc4c-3cc2c1` | GI50: 0.348 µM (active)

Item: `Cn1c(=O)c2c(nc3n(Cc4ccccc4)c(=O)c(NCCCBr)cn23)n(C)c1=O` | GI50: > 100 µM (inactive)

Item: `COc1ccc(-n2sc3ncc(-c4ccccc4)cc3c2=O)cc1` | GI50: 50 µM (inactive)

Item: `c1ccc2c(c1)c(N1CCCCC1)cc1nc3c(cc(N4CCCCC4)c4ccccc43)nc12` | GI50: > 100 µM (inactive)

Item: `O=C(C=P(c1ccccc1)(c1ccccc1)c1ccccc1)C12CC3CC(CC(C3)C1)C2` | GI50: 15 µM (inactive)

Item: `c1ccc2c(CNCCCN3CCN(CCCNCc4cccc5ccccc45)CC3)cccc2c1` | GI50: 1.96 µM (inactive)

====

Test system: CAKI-1
Experiment: NCI tumour cell line growth inhibition, 48 h
Active and inactive are the calls of the source. Cut-off read from the data, not from the text of the source: active = GI50 up to about 1.1 µM and inactive = higher. Where a SMILES comes first, the peptide text is derived from it. The star is where a group is joined. Boc = CC(C)(C)OC(=O)*
Return exactly one item of active, inactive

Record excerpt, results attached:
COMPOUND: CCOC(=O)C1=NN(c2ccc(C)cc2)C2(c3ccccc3)C=C(c3ccccc3)N(C)CCN12 (stereo unspecified)
TARGET_OR_TEST_SYSTEM: CAKI-1
CATEGORY_LABEL: inactive
//
COMPOUND: O=C(COc1ccc(OCC(=O)N2C(=O)CN(c3ccc(Cl)cc3)C2=S)cc1)N1C(=O)CN(c2ccc(Cl)cc2)C1=S
TARGET_OR_TEST_SYSTEM: CAKI-1
CATEGORY_LABEL: inactive
//
COMPOUND: O=C1CS(=O)(=O)C(c2cccc(Oc3ccccc3)c2)N1C1CC1 (stereo unspecified)
TARGET_OR_TEST_SYSTEM: CAKI-1
CATEGORY_LABEL: active
//
COMPOUND: O=C1NC2OC(CO)C(O)C(O)C2O1 (stereo unspecified)
TARGET_OR_TEST_SYSTEM: CAKI-1
CATEGORY_LABEL: inactive
//
COMPOUND: O=c1cc(N2CCN(c3cc(=O)n4ccccc4n3)CC2)oc2ccccc12
TARGET_OR_TEST_SYSTEM: CAKI-1
CATEGORY_LABEL: inactive
//
COMPOUND: CC(C)(C)OC(=O)NC(Cc1ccc(O)cc1)C(=O)N1CCCC1C(=O)O (stereo not drawn) (Boc-Tyr-Pro-OH; configuration not given here)
TARGET_OR_TEST_SYSTEM: CAKI-1
CATEGORY_LABEL: inactive
//
COMPOUND: CC(=O)OCC1(C)C(OC(C)=O)CCC2(C)C(CC(OC(C)=O)C3=CCOC3=O)C(O)(CO)CCC12 (stereo unspecified)
TARGET_OR_TEST_SYSTEM: CAKI-1
CATEGORY_LABEL: inactive
//
COMPOUND: Cn1c(=O)oc2cc(C(O)CN3CCN(Cc4ccc5c(c4)OCO5)CC3)ccc21 (stereo unspecified)
TARGET_OR_TEST_SYSTEM: CAKI-1
CATEGORY_LABEL: inactive
//
COMPOUND: CN(C)/C=N/n1c2ccccc2c2ccccc21
TARGET_OR_TEST_SYSTEM: CAKI-1
CATEGORY_LABEL: inactive
//
COMPOUND: CN(C)C(=O)/N=C1\SC(=N\c2ccccc2)/C(=N/c2ccccc2)N1c1ccc([N+](=O)[O-])cc1
TARGET_OR_TEST_SYSTEM: CAKI-1
CATEGORY_LABEL: inactive

-- ask Would you mind telling me which call this test gave `C=C(c1ccc2[nH]c(NC(=O)OC)nc2c1)c1cccs1` ?
-- reply active

-- ask Would you mind telling me which call this test gave `Cc1ccnc(NS(=O)(=O)c2ccc(N=[N+]=[N-])cc2)n1` ?
-- reply inactive

-- ask Would you mind telling me which call this test gave COc1ccc2c(c1)OCC1Cc3cccc(OC)c3OC21 (stereo unspecified) ?
-- reply inactive

Origin of measurements: ChEMBL document CHEMBL1201862
